B1: library; a variant is named by its letters at N, in order (parent)
chain: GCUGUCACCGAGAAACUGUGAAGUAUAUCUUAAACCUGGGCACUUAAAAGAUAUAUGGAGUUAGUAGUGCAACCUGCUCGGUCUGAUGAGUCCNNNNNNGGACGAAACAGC

- Variants of: B1
- Procedure Text: normalized RNA/DNA level with ligand (relative to sTRSVctl = 100) (log10 (% of sTRSVctl)); HEK293T; ligand: cyclic di-GMP (c-di-GMP-II aptamer); ligand concentration (+) RNA-Seq: 1 mM; higher = less ribozyme self-cleavage, higher mRNA level
- Stated Conditions: reporter: mCherry (pCS4076), ligand present: yes
Metric Name: normalized RNA/DNA level with ligand (log10)
The answer should be written as a number, with no unit following it.

GUCUUU | 1.83
CUCUGG | 1.86
AAUACU | 1.84
GCAAUC | 1.52
UAGGAA | 1.68
CCUCUU | 1.81

Problem: May I ask what normalized RNA/DNA level with ligand (log10) has been recorded for CACAUU ?
Solution: 1.7

Problem: Can you look up the measured normalized RNA/DNA level with ligand (log10) of GAUGGA for me?
Solution: 1.61

Problem: Requested read-out: normalized RNA/DNA level with ligand (log10). Entry: CUCAGU
Solution: 1.83

Problem: Form field: reported normalized RNA/DNA level with ligand (log10) of GCAUCC
Solution: 1.82
